molecular target: uOR (Mus musculus, UniProt P42866); assay: β-arrestin recruitment to uOR / receptor internalization; type: cell-based; parameters: expressed in transfected cells; settings: maximum signal/background ratio for uOR receptor internalization at the EC50
Sequence (P42866 whole entry): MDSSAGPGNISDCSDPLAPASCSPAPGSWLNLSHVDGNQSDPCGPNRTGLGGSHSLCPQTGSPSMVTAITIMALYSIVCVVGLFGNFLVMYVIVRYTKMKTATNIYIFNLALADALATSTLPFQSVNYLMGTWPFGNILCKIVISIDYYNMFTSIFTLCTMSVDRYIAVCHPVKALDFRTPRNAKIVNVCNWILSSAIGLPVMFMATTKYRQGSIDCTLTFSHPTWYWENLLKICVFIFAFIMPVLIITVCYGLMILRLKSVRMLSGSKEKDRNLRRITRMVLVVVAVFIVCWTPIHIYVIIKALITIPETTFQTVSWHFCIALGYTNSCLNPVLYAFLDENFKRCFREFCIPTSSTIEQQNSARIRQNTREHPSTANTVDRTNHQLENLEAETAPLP
Entries whose Max Fold Efficacy is below 4 take Satisfied; entries at or above 4 take Not satisfied.

COC(=O)[C@@H]1C[C@H](OC(=O)Nc2cnc(C)nc2)C(=O)[C@H]2[C@@]1(C)CC[C@H]1C(=O)O[C@H](c3ccoc3)C[C@]21C [Formula Ic-iv] = Satisfied
COC(=O)[C@@H]1C[C@H](OC(=O)c2ccon2)C(=O)[C@H]2[C@@]1(C)CC[C@H]1C(=O)O[C@H](c3ccoc3)C[C@]21C = Satisfied
COC(=O)[C@@H]1C[C@H](OC(=O)c2cc(C)cs2)C(=O)[C@H]2[C@@]1(C)CC[C@H]1C(=O)O[C@H](c3ccoc3)C[C@]21C [Formula Id-iii] = Not satisfied
COC(=O)[C@@H]1C[C@H](NC(=O)c2ccccc2)C(=O)[C@H]2[C@@]1(C)CC[C@H]1C(=O)O[C@H](c3ccoc3)C[C@]21C = Not satisfied

Dear reviewer, please state whether COC(=O)[C@@H]1C[C@H](OC(=O)Nc2ccc(F)cc2)C(=O)[C@H]2[C@@]1(C)CC[C@H]1C(=O)O[C@H](c3ccoc3)C[C@]21C [Formula Ia-iv] has Max Fold Efficacy strictly beneath 4. Not satisfied

Dear reviewer, please state whether COC(=O)[C@@H]1C[C@H](OC(=O)Nc2ccc(Cl)cc2)C(=O)[C@H]2[C@@]1(C)CC[C@H]1C(=O)O[C@H](c3ccoc3)C[C@]21C [Formula Ia-iii] has Max Fold Efficacy strictly beneath 4. Not satisfied
